meta.source: PubChem BioAssay AID1963826

# Tested on: 926638-142-R-J1-PDC complex spheroid viability;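 further: spheroids exposed to drugs for one week before readout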
# assay notes: Anticancer human tumor 926638-142-R-J1-PDC patient-derived endometrial carcinoma cell line growth inhibition [POLQ]
# protocol conditions: curve of first compound; second compound 1 µM
measurement type: pIC50
Give bare numbers, as −log10 of the molar value.

molecule | pIC50
COc1ccc([C@@H](O)c2cc(-c3ncnc4cc(N5CCOCC5)ccc34)c(F)cc2Cl)nn1 + Cc1cccc(N(C)C(=O)C2C(O)CCN2c2nc(C)cc(C(F)(F)F)c2C#N)c1 | 6.31

Okay, next one:
Task: For 926638-142-R-J1-PDC complex spheroid viability, provide pIC50 of CCc1cc2c(N3CCc4c(cc(Cn5ccnc5)cc4-c4cn(C)nc4C(F)(F)F)C3=O)ccnc2c(OC)n1 + Nc1ccc(C#CCN(C(=O)Cc2ncc(C(F)(F)F)cc2C(F)(F)F)c2ccc(F)cc2)nn1 please.
Output: 6.03
